Molecular target: UniProt P41231
Test: Binding affinity to recombinant human N-terminal NLuc-tagged P2Y2R expressed in human 1321N1 cells incubated for 1 hr in presence of AR-C118925 by furimazine-based NanoBRET assay
recorded_metric: log10(Kd) (log10 of the value in nM)
The base-10 logarithm of Kd, taken with Kd in nM, is what appears here.

The cases that follow already have their log10(Kd) on record.
Cc1ccc2c(c1)C=Cc1cc(C)ccc1C2c1cn(Cc2cc(C(=O)NCCOCCOCCNC(=O)COc3ccc(/C=C/C4=[N+]5C(=Cc6ccc(-c7cccs7)n6[B-]5(F)F)C=C4)cc3)cc(C(=O)Nc3nnn[nH]3)c2)c(=O)[nH]c1=S : 2.88
O=C(CCCCCNC(=O)COc1ccc(/C=C/C2=[N+]3C(=Cc4ccc(-c5cccs5)n4[B-]3(F)F)C=C2)cc1)NCCNC(=O)CCNc1nc2c(s1)C=Cc1cc(Cl)ccc1C2c1cn(Cc2nc(C(=O)Nc3nnn[nH]3)cs2)c(=O)[nH]c1=S (stereo not drawn) : 2.11

Look up log10(Kd) for this molecule: Cc1ccc2c(c1)C=Cc1cc(C)ccc1C2c1cn(Cc2cc(C(=O)NCCNC(=O)COc3ccc(/C=C/C4=[N+]5C(=Cc6ccc(-c7cccs7)n6[B-]5(F)F)C=C4)cc3)cc(C(=O)Nc3nnn[nH]3)c2)c(=O)[nH]c1=S
3.44

Try Cc1cc(C)n2c1C=C1C=CC(CCC(=O)NCCCCCC(=O)NCCNC(=O)CCNc3nc4c(s3)C=Cc3cc(Cl)ccc3C4c3cn(C)c(=O)[nH]c3=S)=[N+]1[B-]2(F)F (stereo not drawn) next.
3.33

Try O=C(CCNc1nc2c(s1)C=Cc1cc(Cl)ccc1C2c1cn(Cc2nc(C(=O)Nc3nnn[nH]3)cs2)c(=O)[nH]c1=S)NCCNC(=O)COc1ccc(/C=C/C2=[N+]3C(=Cc4ccc(-c5cccs5)n4[B-]3(F)F)C=C2)cc1 (stereo not drawn) next.
2.95

Try Cc1cc(C)n2c1C=C1C=CC(CCC(=O)NCCNC(=O)CCNc3nc4c(s3)C=Cc3cc(Cl)ccc3C4c3cn(Cc4nc(C(=O)Nc5nnn[nH]5)cs4)c(=O)[nH]c3=S)=[N+]1[B-]2(F)F (stereo not drawn) next.
1.95

Try Cc1cc(C)n2c1C=C1C=CC(CCC(=O)NCCCCCC(=O)NCCOCCOCCNC(=O)CCNc3nc4c(s3)C=Cc3cc(Cl)ccc3C4c3cn(C)c(=O)[nH]c3=S)=[N+]1[B-]2(F)F (stereo not drawn) next.
3.62

Try Cc1cc(C)n2c1C=C1C=CC(CCC(=O)NCCNC(=O)CCNc3nc4c(s3)C=Cc3cc(Cl)ccc3C4c3cn(C)c(=O)[nH]c3=S)=[N+]1[B-]2(F)F (stereo not drawn) next.
4.09

* * *

// reported inhibition for each item listed
Target: P2Y purinoceptor 2 (Homo sapiens)
Sequence (P41231 whole entry): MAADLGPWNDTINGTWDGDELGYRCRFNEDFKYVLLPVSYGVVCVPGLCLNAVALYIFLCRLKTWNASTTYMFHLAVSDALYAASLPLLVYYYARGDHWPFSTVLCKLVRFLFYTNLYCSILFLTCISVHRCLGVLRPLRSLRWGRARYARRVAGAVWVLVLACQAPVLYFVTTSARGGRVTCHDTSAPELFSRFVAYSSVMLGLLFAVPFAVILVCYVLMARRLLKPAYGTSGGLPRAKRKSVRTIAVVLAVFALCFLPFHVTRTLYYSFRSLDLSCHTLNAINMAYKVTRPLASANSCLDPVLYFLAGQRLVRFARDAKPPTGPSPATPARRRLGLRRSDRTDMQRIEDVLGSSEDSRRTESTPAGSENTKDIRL
Experiment: Antagonist activity at human P2Y2R expressed in human 1321N1 cells assessed as inhibition of UTPgammaS-activated calcium-mobilization at 10 uM preincubated for 45 mins measured every 1.52 secs for 200 secs after the addition of UTPgammaS at 15 secs by fluo-4AM-based fluorescence assay relative to UTPgammaS
Assay type: functional, cell-based

CCOCCNc1nc2c(s1)C=Cc1cc(Cl)ccc1[C@@H]2c1cn(C)c(=O)[nH]c1=S : < 50%

Look up inhibition for this compound: Cn1cc(C2c3ccc(Cl)cc3C=Cc3sc(NCCc4ccccc4)nc32)c(=S)[nH]c1=O (stereo not given)
< 50%

Try Cn1cc(C2c3ccc(Cl)cc3C=Cc3sc(-c4ccccc4)nc32)c(=S)[nH]c1=O (stereo not given) next.
< 50%

Try Cn1cc(C2c3ccc(Cl)cc3C=Cc3sc(N4CCOCC4)nc32)c(=S)[nH]c1=O (stereo not given) next.
< 50%

Try Cn1cc(C2c3ccc(Cl)cc3C=Cc3sc(Nc4ccccc4)nc32)c(=S)[nH]c1=O (stereo not given) next.
< 50%
